PROCEDURE SUMMARY: Spectral properties of the dyes compared with commercially available dyes
Assay type: physicochemical
CONDITIONS: reactive ester form of the dye
EXPERIMENTAL READOUT: Emission (Em) (nm)

>  <COMPOUND>
COCCN1/C(=C/C=C/C=C/C=C/C2=[N+](CCCCCC(=O)ON3C(=O)CCC3=O)c3ccc(S(=O)(=O)[O-])cc3C2(C)CCCS(=O)(=O)O)C(C)(CCCS(=O)(=O)O)c2cc(S(=O)(=O)O)ccc21 (single isomer, unassigned) [755 Compound 1 (isomer 1)-NHS]

>  <RESULT>
776

$$$$
>  <COMPOUND>
COCCN1/C(=C/C=C/C=C/C2=[N+](CCCCCC(=O)Oc3c(F)c(F)cc(F)c3F)c3ccc(S(=O)(=O)[O-])cc3C2(C)CCCS(=O)(=O)O)C(C)(CCCS(=O)(=O)O)c2cc(S(=O)(=O)O)ccc21 (stereo not shown)

>  <RESULT>
672

$$$$
>  <COMPOUND>
COCCN1/C(=C/C=C/C=C/C=C/C2=[N+](CCCCCC(=O)ON3C(=O)CCC3=O)c3ccc(S(=O)(=O)[O-])cc3C2(C)CCCS(=O)(=O)O)C(C)(CCCS(=O)(=O)O)c2cc(S(=O)(=O)O)ccc21 (single isomer, unassigned) [755 Compound 1 (isomer 2)-NHS]

>  <RESULT>
776

$$$$
>  <COMPOUND>
COCCN1/C(=C/C=C/C2=[N+](CCCCCC(=O)ON3C(=O)CCC3=O)c3ccc(S(=O)(=O)[O-])cc3C2(C)CCCS(=O)(=O)O)C(C)(CCCS(=O)(=O)O)c2cc(S(=O)(=O)O)ccc21 (stereo not shown)

>  <RESULT>
572

$$$$

Every entry's value here was drawn from patent US10053447B2.
